Assay: Human HepG2 cell viability assay in 384 well format
Type: toxicity, cell-based
Design: dose 125 nL, time 70.5 hour; concentration not given beside the values
Settings: HepG2 cells, read-out: Inhibition
Reported cytotoxicity at 70.5 h values for the following molecules.
Write down the numeric answer in % and omit the unit.

Examples from the recorded data:
{"columns": ["Molecule", "cytotoxicity at 70.5 h (%)"],
 "data": [
  ["CN(C)C[C@@H]1C[C@@H]2CN(C(=O)c3ccoc3)CC[C@@H]2N1CC1CC1", 24],
  ["COc1ccc(NC(C)=O)c(N2CCN(C(C)=O)CC2)n1", -0.156],
  ["CC(NCC(N)=O)c1c(F)cccc1Cl (stereo not drawn)", -85.6],
  ["Cc1oc(-c2ccco2)nc1CC(=O)N1CCC(C(O)C(F)(F)F)CC1 (stereo not drawn)", -18.3],
  ["CCOC1COC2(CCN(CC3CC3)CC2)C1 (stereo not drawn)", 11.6]
]}

cytotoxicity at 70.5 h reported for this molecule COc1ccc2c(c1)CN(c1nc(C)cc(C)n1)CC2 : 3.73

Documented cytotoxicity at 70.5 h of COc1ccc(CCNC(=O)NCC(O)c2cccc(F)c2)cc1 (stereo not drawn) : 8.74

In plain terms, COC1CCN(C(=O)CCn2ccc(=O)[nH]c2=O)CC1 has a documented cytotoxicity at 70.5 h of 8.52

====

Assay: Human HepG2 cell viability assay in 384 well format
Assay type: toxicity, cell-based
Set-up: dose 125 nL, time 70.5 hour; concentration not given beside the values
Conditions: HepG2 cells, read-out: Inhibition
Measured Parameter: cytotoxicity at 70.5 h (%)
The reply should be a number in %, with the unit left off.

{"columns": ["Molecule", "cytotoxicity at 70.5 h / %"],
 "data": [
  ["Cc1cc2c(cc1C)OC1(C=C2)CCN(CC(=O)N2CCOCC2)CC1", -8.77]
]}

Value of cytotoxicity at 70.5 h reported for the molecule Cc1cc(NCc2cn(C)nc2-c2cccnc2)n(C)n1 is -2.96

====

Assay: Human HepG2 cell viability assay in 384 well format
Type: toxicity, cell-based
Set-up: dose 125 nL, time 70.5 hour; concentration not given beside the values
Conditions: HepG2 cells, read-out: Inhibition
cytotoxicity at 70.5 h: recorded values
Form entry: value (%) — number only.

Consider the reported cytotoxicity at 70.5 h for these molecules:
{"columns": ["Molecule", "cytotoxicity at 70.5 h, %"],
 "data": [
  ["CC(CO)NC(=O)Nc1ccc(Cl)cc1OCC(F)(F)F (configuration not stated)", -4.37],
  ["COCc1nc(CNc2cc(C)nc(-c3ccccc3)n2)no1", -8.75],
  ["O=C(c1c2c(N3CCCC3)ncnc2n2ccccc12)N1CCCC1", -11],
  ["Cc1cc(CNC(=O)c2cc(C(C)C)n(C)n2)ccc1S(C)(=O)=O", -8.39],
  ["COc1ccnc(N2CCN(C(=O)Cc3ccc(C)s3)CC2)n1", -5.58]
]}

// recorded cytotoxicity at 70.5 h for CC(Cn1cncn1)NC(=O)NCC(C)(C)Cc1ccccc1 (configuration not stated) : -4.62

Data point: O=S(=O)(NC1=NCN(CCc2cccs2)CN1)c1ccc(Cl)cc1 ; cytotoxicity at 70.5 h = -14.8

====

Assay: Human HepG2 cell viability assay in 384 well format
Assay type: toxicity, cell-based
Set-up: dose 125 nL, time 70.5 hour; concentration not given beside the values
Details: HepG2 cells, read-out: Inhibition
Measured Parameter: cytotoxicity at 70.5 h (%)
Express your answer in %, writing the number without its unit.

Take a look at these entries with their results.
{"columns": ["Compound", "cytotoxicity at 70.5 h / %"],
 "data": [
  ["Cc1cc(C(=O)Nc2ccc(-c3nnc(N(C)C)o3)cc2)oc1C", 14.7],
  ["Cc1nc(CN2CCCC(Cn3cncn3)C2)nc2ccccc12 (configuration not stated)", 19],
  ["CCCC(NC(=O)c1ccc(OC)cc1C)c1nnn[nH]1 (configuration not stated)", 8.62],
  ["COCC(=O)N1CCC(c2cc3ncccc3c(O)n2)CC1", -7.25],
  ["Cc1nnc(NCC(c2ccco2)N(C)C)c(C#N)c1C (configuration not stated)", -4.51],
  ["CCOc1ccnc(N2CCN(C(=O)c3c(CC)noc3C)CC2)n1", -7.39],
  ["CCCc1nc(CN2CCOC(CNc3cccnn3)C2)cs1 (configuration not stated)", -11.7],
  ["COCCN1C(=O)CCC12CCCN(C(=O)CC1CC1)CC2 (configuration not stated)", -6.84]
]}

CC(C(=O)N1CCN(c2ccc(F)cc2)CC1)n1cc(Br)cn1 (configuration not stated) yielded cytotoxicity at 70.5 h of -8.98

Documented cytotoxicity at 70.5 h of CC[C@H]1CN(C(=O)c2cccnc2)CC[C@H]1CC(=O)NCCOC : -1.87

Sample CN(C)CC1(O)CCCN(C(=O)c2ccccc2-n2cccn2)C1 (configuration not stated) ; cytotoxicity at 70.5 h observed: 17.7

Please fill in: cytotoxicity at 70.5 h reported for CN1CCCC[C@@H]2[C@H]1[C@@H](c1ccccc1)CCN2S(=O)(=O)N1CCCC1 = -1.85

cytotoxicity at 70.5 h reported for this compound Cc1cncc(C(=O)N2C[C@@H]3CN(S(C)(=O)=O)CCO[C@@H]3C2)c1 : 19.6

The recorded cytotoxicity at 70.5 h for CC(C)c1nc(CC(=O)N2CCN(C)CC2c2ccccc2)cs1 (configuration not stated) is 12.9

Noted for COC(=O)[C@H](C)NC(=O)Cc1c(C)nc2c(c1C)c(=O)[nH]n2C : its cytotoxicity at 70.5 h reads -2.82

What the record says about O=C1CN(Cc2cnc3c(-c4ccccc4)cnn3c2)CCCN1 : cytotoxicity at 70.5 h is -6.12

Cc1nnc(CN(C)C2CCN(CCc3ccccn3)CC2)o1 yielded cytotoxicity at 70.5 h of -4.31

====

Experiment: Human HepG2 cell viability assay in 384 well format
Type: toxicity, cell-based
Set-up: dose 125 nL, time 70.5 hour; concentration not given beside the values
Conditions: HepG2 cells, read-out: Inhibition
Measured Parameter: cytotoxicity at 70.5 h

Example entries begin here.
{"columns": ["Molecule", "cytotoxicity at 70.5 h"],
 "data": [
  ["CC(C(=O)NCc1ccnc(N2CCCC2)c1)n1cncn1 (centres undefined)", "-1.47%"],
  ["O=C(Nc1cnn(Cc2ccc(F)cc2Cl)c1)C1CC1", "-3.99%"],
  ["c1cnc(NC[C@H]2OC[C@@H]3CCN(Cc4ccncc4)C[C@@H]32)nc1", "17.4%"]
]}

Shifting focus to the molecule that follows.
Lab book: cytotoxicity at 70.5 h of Cc1ccc(C2CSCCN2C(=O)c2ccnc(N(C)C)c2)o1 (centres undefined) noted as 18.6%

====

Assay: Human HepG2 cell viability assay in 384 well format
Type: toxicity, cell-based
Parameters: dose 125 nL, time 70.5 hour; concentration not given beside the values
Conditions: HepG2 cells, read-out: Inhibition
Measured Parameter: cytotoxicity at 70.5 h (%)
Return type: number; implicit unit %.

{"columns": ["Mol", "Measured Parameter", "Unit Info", "Test Value"],
 "data": [
  ["CN1CCN(Cc2cn3c(n2)CN(CC2CC2)CC3)CC1", "cytotoxicity at 70.5 h", "%", -2.8],
  ["CC(C)N1[C@@H](C(=O)NCCN(C)C)C[C@H]2CN(c3ncccn3)C[C@H]21", "cytotoxicity at 70.5 h", "%", -2.96],
  ["COc1ncc(-c2c(C#N)c(N)nc3c2CCc2[nH]ccc2-3)cn1", "cytotoxicity at 70.5 h", "%", -4.69],
  ["O=C(c1cnc(C2CC2)nc1)N1CCC(N2CCC(O)CC2)CC1", "cytotoxicity at 70.5 h", "%", 14.2],
  ["CC(C)c1nn(C)c(Cl)c1CNCc1ccc2c(c1)OCO2", "cytotoxicity at 70.5 h", "%", -5.25],
  ["c1cnc(-c2noc(C3CN(Cc4ccsc4)C3)n2)cn1", "cytotoxicity at 70.5 h", "%", -8.37]
]}

Recorded cytotoxicity at 70.5 h (compound COc1ccc(S(=O)(=O)NC(=O)c2ccccc2F)cc1OC ): 1.07

Recorded cytotoxicity at 70.5 h (compound O=C1CN(CCCNC(=O)Nc2ccccn2)CCN1 ): 1.68

// cytotoxicity at 70.5 h lookup, compound = CNc1oc(-c2cc(S(=O)(=O)N3CCCC3)c(C)o2)nc1C#N , result: -25

Noted for c1coc(CN2CCn3c(CN4CCOCC4)nnc3C2)c1 : its cytotoxicity at 70.5 h reads -1.27

The measured cytotoxicity at 70.5 h associated with Cc1nc(CN2CC[C@H]3[C@@H]2CCC(=O)N3c2cnn(C)c2)cs1 reads 13.5

====

Below, each entry is listed alongside its reported cytotoxicity at 70.5 h.
Assay: Human HepG2 cell viability assay in 384 well format
Format: toxicity, cell-based
Set-up: dose 125 nL, time 70.5 hour; concentration not given beside the values
Conditions: HepG2 cells, read-out: Inhibition
Write the value in % as a bare number.

{"columns": ["Compound", "Unit Info", "cytotoxicity at 70.5 h"],
 "data": [
  ["Cc1nnc(N2C[C@H]3OCC[C@H]3[C@H](C(=O)NCC3CC3)C2)s1", "%", 1.29]
]}

Shifting focus to the compound that follows.
// cytotoxicity at 70.5 h lookup, compound = Cc1occc1C(=O)N1CCc2c(CNc3ncccn3)cncc2C1 , result: -1.28
